Listed next: entries and their corresponding IC50.
- Test system: K-562
- method: Cell proliferation modulatory activity, K-562
- Type: cell-based
- assay.setup: Homo sapiens, K562; Table 45; read-out: K-562 IC50
reported.metric: IC50

> print(dat)
                           substance.smiles  measured.target  meas.value
1  FC(F)(F)Oc1cccc(Nc2nc3c(-c4nnc[nH]4)cccc3c3cnccc23)c1            K-562    < 0.5 µM
2  Fc1ccc(Nc2nc3c(-c4nc[nH]n4)cccc3c3cnccc23)cc1F            K-562     > 10 µM
3  Fc1ccc(Nc2nc3c(-c4nnc[nH]4)cccc3c3cnccc23)c(Cl)c1            K-562    < 0.5 µM
4  c1cc(-c2nc[nH]n2)c2nc(NC3CC3)c3ccncc3c2c1            K-562    < 0.1 µM

* * *

Form field: IC50 (one value per entry).
- Test system: K-562
- method: Cell proliferation modulatory activity, K-562
- Assay type: cell-based
- assay.setup: Homo sapiens, K562; K-562 cells
reported.metric: IC50

> print(dat)
                                    compound  reported.metric  meas.value
 1  CN(C)CCNc1nc2cc(C(=O)NC3CCCCC3)ccc2c2sccc12             IC50     > 10 µM
 2   CN(C)CCNc1nc2cc(C(=O)N(C)C)ccc2c2sccc12             IC50     > 10 µM
 3  CN(c1ccccc1)c1nc2cc(C(=O)NC3CC3)ccc2c2cnc(NC3CC3)nc12             IC50     > 10 µM
 4   Cc1nccn1CCNc1nc2cc(C(=O)O)ccc2c2cnccc12             IC50     > 10 µM
 5  CCn1c2ccccc2c2cc(Nc3nc4cc(C(=O)O)ccc4c4cnccc34)ccc21             IC50     0.11 µM
 6  Clc1cccc(Nc2nc3cc(-c4nnc[nH]4)ccc3c3cnccc23)c1             IC50    0.546 µM
 7  O=C(O)c1ccc2c(c1)nc(NCCn1ccnc1)c1ccncc12             IC50     > 10 µM
 8  O=C(O)c1ccc2c(c1)nc(Nc1cccc(CO)c1)c1ccncc12             IC50     > 10 µM
 9      N#Cc1ccc2c(c1)nc(NCc1ccccn1)c1ccsc12             IC50     > 10 µM
10  CN(c1cccc(Cl)c1)c1nc2cc(C(=O)O)ccc2c2cnccc12             IC50     > 10 µM
11              N#Cc1ccc2c(c1)nc(Cl)c1sccc12             IC50     > 10 µM
12  O=C(O)c1ccc2c(c1)nc(Nc1cc(F)ccc1Br)c1ccncc12             IC50     > 10 µM
13  CN(c1ccccc1)c1nc2cc(C(=O)O)ccc2c2ccncc12             IC50     > 10 µM
14  O=C(O)c1ccc2c(c1)nc(N1CCc3ccccc31)c1ccncc12             IC50     > 10 µM
15  c1cc2c(NCCN3CCCCC3)nc3cc(-c4nnn[nH]4)ccc3c2s1             IC50     > 10 µM
16      CN(C)CCCN(C)c1nc2cc(C#N)ccc2c2sccc12             IC50     7.98 µM
17      N#Cc1ccc2c(c1)nc(NCCn1ccnc1)c1ccsc12             IC50     > 10 µM
18  O=C(O)c1ccc2c(c1)nc(Nc1cccc3ccccc13)c1ccncc12             IC50     > 10 µM
19       CN1CCN(c2nc3cc(C#N)ccc3c3sccc23)CC1             IC50     > 10 µM
20  COC(=O)c1ccc2c(c1)nc(NCCN1CCCC1)c1ccncc12             IC50     1.25 µM
21  Cc1cc(Nc2nc3cc(C(=O)O)ccc3c3cnccc23)c2ccccc2n1             IC50     > 10 µM
22  CCN1CCC[C@@H]1CNc1nc2cc(-c3nnn[nH]3)ccc2c2sccc12             IC50     > 10 µM
23  CCc1cccc(Nc2nc3cc(C(=O)O)ccc3c3cnccc23)c1             IC50     > 10 µM
24       CN(C)CCN(C)c1nc2cc(C#N)ccc2c2sccc12             IC50     1.87 µM
25       N#Cc1ccc2c(c1)nc(NC1CCNCC1)c1ccsc12             IC50     > 10 µM
26  Cc1ccc(Nc2nc3cc(C(=O)O)ccc3c3cnccc23)cc1             IC50    0.132 µM
27      CN1CCC(Nc2nc3cc(C#N)ccc3c3sccc23)CC1             IC50     > 10 µM
28  N#Cc1ccc2c(c1)nc(N1CCC(N3CCCC3)CC1)c1ccsc12             IC50     6.94 µM
29  CCN1CCCC1CNc1nc2cc(-c3nnn[nH]3)ccc2c2sccc12 (stereo not drawn)             IC50    0.175 µM
30  O=C(O)c1ccc2c(c1)nc(Nc1ccc(F)c(Cl)c1)c1ncccc12             IC50     > 10 µM
31    CNC(=O)c1ccc2c(c1)nc(NCCN(C)C)c1ccsc12             IC50     > 10 µM
32  O=C(O)c1ccc2c(c1)nc(NCC1CCN1Cc1ccccc1)c1ccncc12 (stereo not drawn)             IC50     > 10 µM
33  CN1CCCC1CNc1nc2cc(C#N)ccc2c2sccc12 (stereo not drawn)             IC50      6.5 µM
